Values from patent US20240270821A1

- ASSAYED SYSTEM: hGcgR (Homo sapiens)
- Sequence (P47871 26-477): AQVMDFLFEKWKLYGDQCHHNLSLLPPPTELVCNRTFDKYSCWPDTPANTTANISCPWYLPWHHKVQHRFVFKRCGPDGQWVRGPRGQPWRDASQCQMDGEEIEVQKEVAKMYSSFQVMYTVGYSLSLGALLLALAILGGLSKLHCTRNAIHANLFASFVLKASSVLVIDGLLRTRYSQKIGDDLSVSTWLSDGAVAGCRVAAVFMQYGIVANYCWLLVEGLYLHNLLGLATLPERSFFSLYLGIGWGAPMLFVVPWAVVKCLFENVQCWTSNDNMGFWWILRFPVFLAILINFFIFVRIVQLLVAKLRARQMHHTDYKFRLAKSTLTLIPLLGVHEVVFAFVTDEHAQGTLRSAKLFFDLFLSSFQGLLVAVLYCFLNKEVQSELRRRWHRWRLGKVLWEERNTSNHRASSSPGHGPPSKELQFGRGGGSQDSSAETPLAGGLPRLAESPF
- TEST: Functional cAMP activation in the presence of 0.1% casein (no HSA);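 also: intracellular cAMP rise after 30 min at 37 °C, read by HTRF against a cAMP standard curve, scaled from buffer only (0%) to maximal control ligand response (100%)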
- Assay type: cell-based
- EXPERIMENTAL PARAMETERS: in the presence of 0.1% casein (no HSA); geometric mean; read-out: Relative cAMP EC50, hGcgR
pEC50: −log10 of the molar value. Starred links: 1 amine or outer side, 2 acyl side, 3 side chain; linkers in the order of their positions; H or OH if unused. Non-standard residues stand in square brackets, D forms with d. Groups on a side chain read outwards from the residue. No end group written: not given here. *: point of attachment. C20 diacid = O=C(O)CCCCCCCCCCCCCCCCCCC(=O)*; C18 diacid = O=C(O)CCCCCCCCCCCCCCCCC(=O)*; γGlu = O=C(O)[C@H](CCC(=O)[*:2])N[*:1]; αMe4Pal = C[C@](N)(Cc1ccncc1)C(=O)O; 4Pal = N[C@@H](Cc1ccncc1)C(=O)O; αMeL = CC(C)C[C@](C)(N)C(=O)O; Orn = NCCC[C@H](N)C(=O)O; AEEA = NCCOCCOCC(=O)O; Aib = CC(C)(N)C(=O)O
Measured pEC50 accompanies every entry in the list below.
OBSERVED PROPERTY: pEC50

> print(dat)
                                  substance   val
1  H-Y[Aib]QGTFTSD[4Pal]SQ[αMeL]LD[Orn]K([γGlu-γGlu-C18 diacid])AQ[αMe4Pal]AFIEYLIE[dA]GPSSGEPPPSGS-NH2 [Example 1019]  8.36
2  H-Y[Aib]QGTFTSDFSK[αMeL]LDKK([AEEA-γGlu-C20 diacid])AQ[Aib]AFIEWLLAGGPSSGEPPPSGE-NH2 [Example 21]  7.91
3  H-Y[Aib]QGTFTSD[4Pal]SQ[αMeL]LDKK([γGlu-γGlu-C18 diacid])AQ[αMe4Pal]AFIE[αMe4Pal]LIE[Aib]GPSSGAPPPSGE-NH2 [Example 1120]  8.29
4  H-Y[Aib]QGTFTSDYSI[αMeL]LDKQAAK([AEEA-AEEA-γGlu-C20 diacid])QFVEWLIA[Aib]GPSSGEPPPSEG-NH2 [Example 326]  8.27
5  H-Y[Aib]QGTFTSD[4Pal]S[Orn][αMeL]LDKK([AEEA-γGlu-C18 diacid])AQ[Aib]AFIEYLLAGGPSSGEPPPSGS-NH2 [Example 154]  8.06
6  Y[Aib]QGTFTSD[4Pal]SQ[αMeL]LDKK([AEEA-γGlu-C18 diacid])AQ[Aib]AFIEYLLE[dA]GPSSGAPPPSGS-NH2 [Example 820]  8.17
